- Target System: HIV-1 93IN905 Env (clade C pseudovirus) (HIV-1)
- Procedure Details: cell-based or functional assay
Recorded Endpoint: IC50 (µg/mL), pseudovirus neutralization

Complete the entry with IC50 (µg/mL), pseudovirus neutralization for 1460_G14 (PGG14) (antibody, human IgG1, kappa, V domains shown) VH: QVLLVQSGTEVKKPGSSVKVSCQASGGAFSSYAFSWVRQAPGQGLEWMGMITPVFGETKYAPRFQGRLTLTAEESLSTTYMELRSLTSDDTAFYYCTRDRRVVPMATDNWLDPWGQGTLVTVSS VL: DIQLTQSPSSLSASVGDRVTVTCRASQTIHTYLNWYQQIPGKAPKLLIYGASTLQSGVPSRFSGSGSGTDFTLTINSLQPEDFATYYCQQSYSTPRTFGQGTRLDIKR
> 50 µg/mL
